We begin with a simple list: items and their reported shrunken log2 fold change.
test system: Escherichia coli TOP10; assay: shrunken log2 fold change of peptide-encoding DNA abundance (4.5 h post-induction vs induction); higher = less antimicrobial activity (less host growth inhibition); conditions: time post-induction: 4.5 h; library: site-saturation at positions 5, 18, 19, 20
measured_metric: shrunken log2 fold change

RRIRFRPPRLPRPRPRPCREPRP
-0.0892
RRIRPRPPRLPRPRPRPAHMPRP
-0.0534
RRIRDRPPRLPRPRPRPLEHPRP
-0.164
RRIRHRPPRLPRPRPRPPPRPRP
1.25
RRIRWRPPRLPRPRPRPRERPRP
0.859
RRIRYRPPRLPRPRPRPSVPPRP
-0.497
RRIRFRPPRLPRPRPRPGSWPRP
0.244
RRIRIRPPRLPRPRPRPDKRPRP
-0.0405
RRIRERPPRLPRPRPRPYVCPRP
-1.6
RRIRHRPPRLPRPRPRPDLCPRP
0.00487
RRIRLRPPRLPRPRPRPDYGPRP
-0.23
RRIRKRPPRLPRPRPRPNKSPRP
0.0234
RRIRFRPPRLPRPRPRPALSPRP
0.319
RRIRQRPPRLPRPRPRPFFYPRP
-0.257
RRIRKRPPRLPRPRPRPNNIPRP
-0.477
RRIRWRPPRLPRPRPRPFTHPRP
-0.297
RRIRRRPPRLPRPRPRPNLYPRP
-0.0246
RRIRPRPPRLPRPRPRPLTRPRP
0.103
RRIRWRPPRLPRPRPRPKVWPRP
0.68
RRIRCRPPRLPRPRPRPIIPPRP
-0.645
RRIRYRPPRLPRPRPRPTPHPRP
-0.181
RRIRMRPPRLPRPRPRPMPQPRP
4.29
RRIRTRPPRLPRPRPRPMNFPRP
-0.638
RRIRQRPPRLPRPRPRPHVSPRP
-0.108
RRIRRRPPRLPRPRPRPLQQPRP
0.0366
RRIRPRPPRLPRPRPRPQLEPRP
0.376
RRIRPRPPRLPRPRPRPLNEPRP
-0.348
RRIRVRPPRLPRPRPRPNRQPRP
-0.326
RRIRCRPPRLPRPRPRPMLKPRP
-0.141
RRIRKRPPRLPRPRPRPHYPPRP
-0.16
RRIRGRPPRLPRPRPRPLFEPRP
0.739
RRIRPRPPRLPRPRPRPHFWPRP
0.482

====

system: Escherichia coli TOP10; assay: shrunken log2 fold change of peptide-encoding DNA abundance (4.5 h post-induction vs induction); higher = less antimicrobial activity (less host growth inhibition); conditions: time post-induction: 4.5 h; library: site-saturation at positions 5, 18, 19, 20
measured_metric: shrunken log2 fold change

RRIRKRPPRLPRPRPRPLQIPRP
0.0389
RRIRQRPPRLPRPRPRPSDYPRP
-0.0346
RRIRGRPPRLPRPRPRPRYTPRP
0.178
RRIRYRPPRLPRPRPRPWRVPRP
0.0112
RRIRQRPPRLPRPRPRPFPLPRP
-0.0585
RRIRSRPPRLPRPRPRPRETPRP
0.124
RRIRMRPPRLPRPRPRPRLMPRP
-0.0423
RRIRARPPRLPRPRPRPQCTPRP
-0.0222
RRIRIRPPRLPRPRPRPHWIPRP
-0.157
RRIRSRPPRLPRPRPRPMWAPRP
0.00731
RRIRSRPPRLPRPRPRPTEIPRP
-0.0163
RRIRFRPPRLPRPRPRPWYTPRP
-0.38
RRIRNRPPRLPRPRPRPGMLPRP
-0.184
RRIRYRPPRLPRPRPRPWTAPRP
-0.283
RRIRCRPPRLPRPRPRPKHMPRP
-0.25

====

test system: Escherichia coli TOP10; assay: shrunken log2 fold change of peptide-encoding DNA abundance (4.5 h post-induction vs induction); higher = less antimicrobial activity (less host growth inhibition); conditions: time post-induction: 4.5 h; library: site-saturation at positions 5, 18, 19, 20
We begin with a simple list: items and their reported shrunken log2 fold change.
measured_metric: shrunken log2 fold change

RRIRPRPPRLPRPRPRPTAHPRP
0.231
RRIRDRPPRLPRPRPRPNICPRP
0.153
RRIRWRPPRLPRPRPRPVWDPRP
0.177
RRIRERPPRLPRPRPRPWFKPRP
-0.0858
RRIRERPPRLPRPRPRPCCFPRP
-0.248
RRIRYRPPRLPRPRPRPVQYPRP
-0.0125
RRIRIRPPRLPRPRPRPQGEPRP
-0.0606
RRIRKRPPRLPRPRPRPEMDPRP
0.0842

====

tested on: Escherichia coli TOP10; assay: shrunken log2 fold change of peptide-encoding DNA abundance (4.5 h post-induction vs induction); higher = less antimicrobial activity (less host growth inhibition); conditions: time post-induction: 4.5 h; library: site-saturation at positions 5, 18, 19, 20
# if value of shrunken log2 fold change reaches 0.02, tag TRUE; if it stays below, tag FALSE

RRIRWRPPRLPRPRPRPLRPPRP
TRUE
RRIRWRPPRLPRPRPRPYEPPRP
FALSE
RRIRERPPRLPRPRPRPEAYPRP
FALSE
RRIRQRPPRLPRPRPRPSMMPRP
FALSE
RRIRNRPPRLPRPRPRPCNRPRP
FALSE
RRIRERPPRLPRPRPRPEWHPRP
TRUE
RRIRQRPPRLPRPRPRPEPMPRP
TRUE
RRIRTRPPRLPRPRPRPHFPPRP
FALSE

====

system: Escherichia coli TOP10; assay: shrunken log2 fold change of peptide-encoding DNA abundance (4.5 h post-induction vs induction); higher = less antimicrobial activity (less host growth inhibition); conditions: time post-induction: 4.5 h; library: site-saturation at positions 5, 18, 19, 20
measured_metric: shrunken log2 fold change

RRIRHRPPRLPRPRPRPIHAPRP
-0.173
RRIRPRPPRLPRPRPRPYKGPRP
-0.437
RRIRSRPPRLPRPRPRPKWKPRP
-0.0184
RRIRFRPPRLPRPRPRPYATPRP
-0.419
RRIRCRPPRLPRPRPRPADVPRP
-0.391
RRIRQRPPRLPRPRPRPPFHPRP
0.102
RRIRWRPPRLPRPRPRPGETPRP
0.174
RRIRVRPPRLPRPRPRPKMSPRP
-0.122
RRIRSRPPRLPRPRPRPDSVPRP
0.107
RRIRKRPPRLPRPRPRPTFLPRP
0.228
RRIRKRPPRLPRPRPRPPKDPRP
0.498
RRIRSRPPRLPRPRPRPLCLPRP
0.259
RRIRIRPPRLPRPRPRPVTDPRP
-0.00257
RRIRARPPRLPRPRPRPPFNPRP
0.167
RRIRERPPRLPRPRPRPYINPRP
-0.248

====

test system: Escherichia coli TOP10; experiment: shrunken log2 fold change of peptide-encoding DNA abundance (4.5 h post-induction vs induction); higher = less antimicrobial activity (less host growth inhibition); settings: time post-induction: 4.5 h; library: site-saturation at positions 5, 18, 19, 20
We begin with a simple list: items and their reported shrunken log2 fold change.
measured_metric: shrunken log2 fold change

RRIRFRPPRLPRPRPRPDTGPRP
-0.356
RRIRMRPPRLPRPRPRPGKGPRP
0.0403
RRIRKRPPRLPRPRPRPDPWPRP
0.422
RRIRYRPPRLPRPRPRPPIGPRP
-0.0423
RRIRDRPPRLPRPRPRPPNAPRP
0.617
RRIRSRPPRLPRPRPRPEKLPRP
-0.264
RRIRLRPPRLPRPRPRPPFSPRP
-0.25
RRIRIRPPRLPRPRPRPQPRPRP
0.343

====

test system: Escherichia coli TOP10; test: shrunken log2 fold change of peptide-encoding DNA abundance (4.5 h post-induction vs induction); higher = less antimicrobial activity (less host growth inhibition); conditions: time post-induction: 4.5 h; library: site-saturation at positions 5, 18, 19, 20;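 note: peptides expressed intracellularly from a pBAD plasmid library in pooled LB shake-flask culture, induced with 0.3% L-arabinose, DNA abundance read by NGS, three biological replicates, DESeq2 with apeglm shrinkage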
measured_metric: shrunken log2 fold change

RRIRFRPPRLPRPRPRPPVEPRP
0.143
RRIRERPPRLPRPRPRPTFNPRP
-0.24
RRIRQRPPRLPRPRPRPKLYPRP
-0.0149
RRIRLRPPRLPRPRPRPPEIPRP
0.196
RRIRVRPPRLPRPRPRPMRDPRP
0.0208
RRIRERPPRLPRPRPRPRDGPRP
0.237
RRIRKRPPRLPRPRPRPERGPRP
0.443
RRIRWRPPRLPRPRPRPAGLPRP
0.289
RRIRMRPPRLPRPRPRPPCFPRP
0.257
RRIRMRPPRLPRPRPRPDADPRP
3.36
RRIRRRPPRLPRPRPRPLGRPRP
-0.143
RRIRVRPPRLPRPRPRPYMRPRP
0.162
RRIRGRPPRLPRPRPRPRIRPRP
0.211
RRIRGRPPRLPRPRPRPMVIPRP
0.329
RRIRVRPPRLPRPRPRPICRPRP
0.177
RRIRCRPPRLPRPRPRPLLVPRP
-0.317
RRIRARPPRLPRPRPRPGQNPRP
0.596
RRIRDRPPRLPRPRPRPEFQPRP
0.4
RRIRRRPPRLPRPRPRPDCFPRP
0.681
RRIRVRPPRLPRPRPRPITTPRP
-0.304
RRIRERPPRLPRPRPRPFCFPRP
-0.106
RRIRHRPPRLPRPRPRPWPKPRP
0.015
RRIRPRPPRLPRPRPRPLANPRP
-0.0209
RRIRFRPPRLPRPRPRPMTTPRP
0.000405
RRIRIRPPRLPRPRPRPRVLPRP
-0.24
RRIRDRPPRLPRPRPRPYMFPRP
-0.244
RRIRWRPPRLPRPRPRPNVEPRP
-0.319
RRIRVRPPRLPRPRPRPRSFPRP
0.029
RRIRRRPPRLPRPRPRPLFPPRP
0.0907
RRIRFRPPRLPRPRPRPGFWPRP
0.24
RRIRTRPPRLPRPRPRPNWNPRP
-0.335
RRIRGRPPRLPRPRPRPTLHPRP
0.896
